# MEASURED_TARGET: T1, human LAG-3 ECD (antigen protein of the affinity test) (human, UniProt P18627 23-450)
# T1 sequence: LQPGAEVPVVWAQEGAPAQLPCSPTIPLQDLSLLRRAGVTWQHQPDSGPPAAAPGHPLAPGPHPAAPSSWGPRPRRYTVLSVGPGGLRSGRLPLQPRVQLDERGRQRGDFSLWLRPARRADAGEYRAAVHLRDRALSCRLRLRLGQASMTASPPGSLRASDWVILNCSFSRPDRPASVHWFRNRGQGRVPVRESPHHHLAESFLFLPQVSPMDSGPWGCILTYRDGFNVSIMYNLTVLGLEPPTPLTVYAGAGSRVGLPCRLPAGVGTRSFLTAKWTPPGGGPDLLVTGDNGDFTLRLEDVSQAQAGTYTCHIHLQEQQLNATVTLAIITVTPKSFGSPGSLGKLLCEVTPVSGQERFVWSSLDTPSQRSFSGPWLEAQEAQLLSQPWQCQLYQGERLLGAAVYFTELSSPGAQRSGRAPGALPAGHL
# ASSAY_PROTOCOL: SPR, CM5 chip, antibody captured by anti-human Fc IgG, antigen in flow, 1:1 fit
Recorded kon by entry
Give the number first and the unit second.

| BINDER | kon |
| --- | --- |
| 405B8H3-6 humanized antibody (antibody, V domains shown) VH: QVQLVQSGAEVKKPGASVKVSCKASGYTFTDYEMHWVRQAPGQGLEWMGATDPETGNSAYNQKFKGRVTMTADKSTSTVYMELSSLRSEDTAVYYCISTGWNDWGQGTTVTVSS VL: DIQMTQSPSSLSASVGDRVTITCKASQDINSYLSWFQQKPGKAPKSLIYRADRLLDGVPSRFSGSGSGQDYTLTISSLQPEDFATYYCLQYDEFPYTFGQGTKLEIK | 94900 M⁻¹ s⁻¹ |
| 556F6B8 mouse-human chimeric antibody (antibody, V domains shown, also called mAb123-556F6B8; 556F8B8) VH: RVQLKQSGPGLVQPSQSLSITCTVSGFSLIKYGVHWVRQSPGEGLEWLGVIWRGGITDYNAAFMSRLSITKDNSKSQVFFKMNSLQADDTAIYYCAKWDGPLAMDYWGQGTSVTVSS VL: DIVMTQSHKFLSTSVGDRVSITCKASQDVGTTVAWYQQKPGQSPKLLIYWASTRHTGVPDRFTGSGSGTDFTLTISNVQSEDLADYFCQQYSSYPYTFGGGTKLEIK | 134000 M⁻¹ s⁻¹ |

### Prompt For 405B8H3-2 humanized antibody (antibody, V domains shown) VH: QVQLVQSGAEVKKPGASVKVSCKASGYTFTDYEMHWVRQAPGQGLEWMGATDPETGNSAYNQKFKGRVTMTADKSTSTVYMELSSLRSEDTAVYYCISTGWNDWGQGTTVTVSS VL: DIQMTQSPSSLSASVGDRVTITCKASQDINSYLSWFQQKPGKAPKSLIYRADRLLDGVPSRFSGSGSGTDFTLTISSLQPEDFATYYCLQYDEFPYTFGQGTKLEIK , what is its reported kon?
### Response 110000 M⁻¹ s⁻¹
